target: BACE1 (Homo sapiens); construct: purchased R&D 931-AS-050; assay: in vitro BACE inhibition assay (Primary BACE1 IC50); format: biochemical; conditions: in vitro BACE inhibition assay, FIG. 8; read-out: IC50
readout_type: IC50 (nM)
Record the value in nM, omitting the unit from your answer.

## Input Bench note: what IC50 did CN1C(=O)C(c2ccc(OC(F)F)cc2)(c2cccc(-c3cncnc3)c2)N=C1N (stereo not shown) show?
## Output 9

---

molecular target: APP (Homo sapiens, UniProt P05067)
Sequence (P05067 230-624 isoform P05067-4): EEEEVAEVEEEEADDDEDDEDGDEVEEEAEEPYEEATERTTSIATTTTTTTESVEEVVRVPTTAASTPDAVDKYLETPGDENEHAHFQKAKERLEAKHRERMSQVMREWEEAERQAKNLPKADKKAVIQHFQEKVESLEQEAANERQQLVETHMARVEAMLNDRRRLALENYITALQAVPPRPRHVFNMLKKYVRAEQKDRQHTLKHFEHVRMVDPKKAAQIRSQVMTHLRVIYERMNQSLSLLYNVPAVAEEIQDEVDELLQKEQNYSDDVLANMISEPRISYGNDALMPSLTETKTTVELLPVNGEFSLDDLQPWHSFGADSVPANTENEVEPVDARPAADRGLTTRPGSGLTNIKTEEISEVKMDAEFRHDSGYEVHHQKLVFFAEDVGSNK
pKd: −log10 of the molar value.
readout_type: pKd

## Input Can you look up pKd on APP (Homo sapiens, UniProt P05067) for Cc1cc(C2(c3cc(F)cc(F)c3)N=C(N)N(C)C2=O)ccc1OC(F)F (stereo not shown) ?
## Output ~6.52

---

assay: solubility (Sol); type: physicochemical; conditions: Table 3; in words
readout_type: Sol

COCc1cccc(C2(c3ccc(OC(F)F)c(C)c3)N=C(N)N(C)C2=O)c1 (stereo not drawn) ... med
Cc1cc(C2(c3cccc(F)c3)N=C(N)N(C)C2=O)ccc1OC(F)F (stereo not drawn) ... med
Cc1cc(C2(c3cncc(F)c3)N=C(N)N(C)C2=O)ccc1OC(F)F (stereo not drawn) ... good
Cc1cc(C2(c3ccnc(F)c3)N=C(N)N(C)C2=O)ccc1OC(F)F (stereo not drawn) ... good

---

target: BACE1 (Homo sapiens, UniProt P56817); construct: purchased R&D 931-AS-050; test: in vitro BACE inhibition assay (Primary BACE1 IC50); format: biochemical; settings: Table 3; read-out: IC50
Sequence (P56817 46-457 limits assumed): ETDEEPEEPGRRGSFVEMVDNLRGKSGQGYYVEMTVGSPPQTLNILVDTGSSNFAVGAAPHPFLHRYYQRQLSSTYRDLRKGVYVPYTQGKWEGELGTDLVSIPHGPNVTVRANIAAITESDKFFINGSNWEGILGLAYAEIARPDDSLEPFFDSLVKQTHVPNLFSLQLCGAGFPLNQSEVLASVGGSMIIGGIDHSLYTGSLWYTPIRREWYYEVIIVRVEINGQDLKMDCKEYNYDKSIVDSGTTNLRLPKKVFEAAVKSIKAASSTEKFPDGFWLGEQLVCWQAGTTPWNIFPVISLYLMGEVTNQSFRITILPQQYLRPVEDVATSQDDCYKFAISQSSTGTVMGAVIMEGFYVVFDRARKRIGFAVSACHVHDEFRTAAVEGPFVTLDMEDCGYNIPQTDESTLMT
readout_type: IC50

## Input Bench note: what IC50 did COCc1cccc(C2(c3ccc(OC(F)F)c(C)c3)N=C(N)N(C)C2=O)c1 (stereo not drawn) show?
## Output ~25 nM

## Input Bench note: what IC50 did CNCc1cccc(C2(c3ccc(OC(F)F)c(C)c3)N=C(N)N(C)C2=O)c1 (stereo not drawn) show?
## Output ~60 nM

## Input Bench note: what IC50 did Cc1cc(C2(c3cccc(-c4cccnc4)c3)N=C(N)N(C)C2=O)ccc1OC(F)F (stereo not drawn) show?
## Output ~60 nM

## Input Bench note: what IC50 did Cc1cc(C2(c3cccc(F)c3)N=C(N)N(C)C2=O)ccc1OC(F)F (stereo not drawn) show?
## Output ~100 nM

## Input Bench note: what IC50 did Cc1cc(C2(c3cncc(F)c3)N=C(N)N(C)C2=O)ccc1OC(F)F (stereo not drawn) show?
## Output ~5300 nM

## Input Bench note: what IC50 did Cc1cc(C2(c3ccnc(F)c3)N=C(N)N(C)C2=O)ccc1OC(F)F (stereo not drawn) show?
## Output ~1200 nM

---

Provide the recorded IC50 for the entries that follow.
biological target: BACE1 (Homo sapiens, UniProt P56817); construct: purchased R&D 931-AS-050; assay: in vitro BACE inhibition assay (Primary BACE1 IC50); assay type: biochemical; settings: Table 4; several values in a cell = several determinations; read-out: BACE1 IC50
Record the value in nM, omitting the unit from your answer.

## Input Bench note: what IC50 did Cc1cc(C2(c3cncnc3)N=C(N)N(C)C2=O)ccc1OC(F)F (centres unmarked) [FAH-33] show?
## Output 10000

## Input Bench note: what IC50 did CCCC1CC(C2(c3ccc(OC(F)F)c(C)c3)N=C(N)N(C)C2=O)CCN1 (centres unmarked) [FAH-81] show?
## Output 14900

## Input Bench note: what IC50 did Cc1cc(C2(c3ccc(OC(F)F)c(C)c3)N=C(N)N(C)C2=O)ccn1 (centres unmarked) [FAH-47] show?
## Output 1400

## Input Bench note: what IC50 did CNCCc1cccc(C2(c3ccc(OC(F)F)c(C)c3)N=C(N)N(C)C2=O)c1 (centres unmarked) [FAH-63] show?
## Output 1180

## Input Bench note: what IC50 did Cc1cc(C2(c3ccnc(F)c3)N=C(N)N(C)C2=O)ccc1OC(F)F (centres unmarked) [FAH-46] show?
## Output 1600

---

experiment: pharmacokinetics, brain level (Cmax brain); format: in vivo; conditions: 10 mg/kg 5Q
readout_type: Cmax brain

## Input Bench note: what Cmax brain did Cc1cc(C2(c3cccc(F)c3)N=C(N)N(C)C2=O)ccc1OC(F)F (stereo not shown) [FAH-17] show?
## Output ~300 nM

## Input Bench note: what Cmax brain did Cc1cc(C2(c3cccc(-c4cccnc4)c3)N=C(N)N(C)C2=O)ccc1OC(F)F (stereo not shown) [FAH-32] show?
## Output <20 nM

## Input Bench note: what Cmax brain did Cc1cc(C2(c3ccnc(F)c3)N=C(N)N(C)C2=O)ccc1OC(F)F (stereo not shown) [FAH-46] show?
## Output ~300 nM

## Input Bench note: what Cmax brain did COCc1cccc(C2(c3ccc(OC(F)F)c(C)c3)N=C(N)N(C)C2=O)c1 (stereo not shown) [FAH-44] show?
## Output ~200 nM

---

molecular target: BACE1 (Homo sapiens, UniProt P56817); construct: purchased R&D 931-AS-050; assay: in vitro BACE inhibition assay (Primary BACE1 IC50); format: biochemical; settings: Table 4; several values in a cell = several determinations; read-out: BACE1 IC50
# thresholds on IC50 define classes: low (below 1000 nM), mid (1000 nM to below 2000 nM), high (2000 nM or more)

## Input Could you tell me which band COc1ccc(C2(c3cc(C)c(F)cc3F)N=C(N)N(C)C2=O)cc1C (stereo not shown) [FAH-09] belongs to?
## Output mid

## Input Could you tell me which band Cc1cc(C2(C3CCNCC3)N=C(N)N(C)C2=O)ccc1OC(F)F (stereo not shown) [FAH-79] belongs to?
## Output high

## Input Could you tell me which band Cc1cc(C2(c3ccncc3)N=C(N)N(C)C2=O)ccc1OC(F)F (stereo not shown) [FAH-78] belongs to?
## Output high

## Input Could you tell me which band CC#Cc1cc(C2(c3ccc(OC(F)F)c(C)c3)N=C(N)N(C)C2=O)ccn1 (stereo not shown) [FAH-57] belongs to?
## Output low

## Input Could you tell me which band Cc1cc(C2(c3cccc(C(F)(F)F)c3)N=C(N)N(C)C2=O)ccc1OC(F)F (stereo not shown) [FAH-28] belongs to?
## Output low

## Input Could you tell me which band COc1ccc(C2(c3cc(F)cc(F)c3)N=C(N)N(C)C2=O)cn1 (stereo not shown) [FAH-11] belongs to?
## Output mid

## Input Could you tell me which band Cc1cc(C2(c3cc(F)cc(Cl)c3)N=C(N)N(C)C2=O)ccc1OC(F)F (stereo not shown) [FAH-25] belongs to?
## Output low

## Input Could you tell me which band Cc1cc(C2(c3cccc(C(C)C)c3)N=C(N)N(C)C2=O)ccc1OC(F)F (stereo not shown) [FAH-29] belongs to?
## Output high

## Input Could you tell me which band Cc1cc(C2(c3cocn3)N=C(N)N(C)C2=O)ccc1OC(F)F (stereo not shown) [FAH-38] belongs to?
## Output high

## Input Could you tell me which band COCc1cc(C2(c3ccc(OC(F)F)c(C)c3)N=C(N)N(C)C2=O)ccn1 (stereo not shown) [FAH-53] belongs to?
## Output mid

## Input Could you tell me which band COc1cc(C2(c3ccc(OC(F)F)c(C)c3)N=C(N)N(C)C2=O)ccn1 (stereo not shown) [FAH-48] belongs to?
## Output high

## Input Could you tell me which band Cc1cc(C2(c3cccc(Cl)c3)N=C(N)N(C)C2=O)ccc1OC(F)F (stereo not shown) [FAH-23] belongs to?
## Output low

## Input Could you tell me which band CCCc1cc(C2(c3ccc(OC(F)F)c(C)c3)N=C(N)N(C)C2=O)ccn1 (stereo not shown) [FAH-80] belongs to?
## Output mid

## Input Could you tell me which band Cc1cc(C2(c3cc(F)c(F)c(F)c3)N=C(N)N(C)C2=O)ccc1OC(F)F (stereo not shown) [FAH-19] belongs to?
## Output low

## Input Could you tell me which band CN1C(=O)C(c2ccc(OC(F)F)cc2)(c2cccc(-c3cncnc3)c2)N=C1N (stereo not shown) [FAH-74] belongs to?
## Output low

## Input Could you tell me which band COc1ccc(C2(c3cc(F)cc(F)c3)N=C(N)N(C)C2=O)cc1F (stereo not shown) [FAH-12] belongs to?
## Output high

## Input Could you tell me which band Cc1cccc(C2(c3ccc(OC(F)F)c(C)c3)N=C(N)N(C)C2=O)c1 (stereo not shown) [FAH-27] belongs to?
## Output low

## Input Could you tell me which band CN1C(=O)C(c2cc(F)cc(F)c2)(c2ccc(F)c(F)c2)N=C1N (stereo not shown) [FAH-14] belongs to?
## Output mid

## Input Could you tell me which band COc1ccc(C2(c3ccc(F)cc3F)N=C(N)N(C)C2=O)cc1C (stereo not shown) [FAH-08] belongs to?
## Output high

## Input Could you tell me which band CNCc1cccc(C2(c3ccc(OC(F)F)c(C)c3)N=C(N)N(C)C2=O)c1 (stereo not shown) [FAH-62] belongs to?
## Output low

## Input Could you tell me which band Cc1cc(C2(c3cc(F)cc(F)c3)N=C(N)N(C)C2=O)ccc1F (stereo not shown) [FAH-10] belongs to?
## Output mid

## Input Could you tell me which band Cc1cc(C2(c3cccc(-c4ccccc4)c3)N=C(N)N(C)C2=O)ccc1OC(F)F (stereo not shown) [FAH-73] belongs to?
## Output low

## Input Could you tell me which band Cc1cc(C)cc(C2(c3cc(F)cc(F)c3)N=C(N)N(C)C2=O)c1 (stereo not shown) [FAH-05] belongs to?
## Output high
